- Tested on: MCF7 breast
- Test name: NCI-60 one-dose screen, 48 h (100 = growth as untreated, 0 = no growth, -100 = all killed)
- Measurement context: 10 µM unless noted
- Experimental: Growth inhibition of the MCF7 human tumor cell line is measured as a screen for anti-cancer activity. Cells are grown in 96 well plates and exposed to the test compound for 48 hours. Compounds are tested at a single concentration, which is 10^-5 M for most compounds. The reported endpoint is percent growth (GI% or GIPRCNT), where numbers from 0 - 100% represent growth inhibition, and numbers from -100% - 0 represent cell death. For example, a value of 40 represents 60% growth inhibition. […]
This is part of a sample that, as a whole, favours compounds with a hit. Of some 83,000 tested, about 20% had one in any assay. Activity calls are given as the source filed them. The calls were made as follows: active = growth percent below 10; inactive = the rest.
Quantity name: growth

Molecule | Quantity name | Measured value
CN(Cc1ccccc1)Cc1ccccc1 | growth | 97.9% (inactive)
NC(=O)c1ccccc1OCC(O)CO (stereo unspecified) | growth | 94.1% (inactive)
N=C1N=C(N)CS1 | growth | 96.8% (inactive)
O=C1c2ccccc2C(=O)N1/N=C/c1ccc2c(c1)OCO2 | growth | 91.3% (inactive)
N#C/C(=C/c1c(O)ccc2ccccc12)C(N)=O | growth | 95.1% (inactive)
O=C(O)c1sccc1O | growth | 15.4% [100 µM] (inactive)
O=[N+]([O-])c1ccc(-n2[nH]nnc2=S)cc1 | growth | 95% (inactive)
NCCSC(C[N+](=O)[O-])c1ccccc1Cl (stereo unspecified) | growth | -19.1% (active)
C1CCCCNCCC1 | growth | 101% (inactive)
CNC(=O)c1cccnc1 | growth | 105% (inactive)
N#CCCOc1ccccc1 | growth | 94.1% (inactive)
CCC(=O)C(CC)c1cccc(OC)c1 (stereo unspecified) | growth | 104% (inactive)
COc1ccc(NC(=S)Nc2ccccn2)cc1 | growth | 95.1% (inactive)
Cc1ccc2nc3c(nc2c1)-c1cccc2cccc-3c12 | growth | 38.3% (inactive)
CC1=NN(c2ccccc2)C(=O)C1C(=O)c1ccccc1 (stereo unspecified) | growth | 86% (inactive)
COc1c2c(c3c(c1OC)c(=O)c1ccccc1n3C)OCO2 | growth | 81.3% [100 µM] (inactive)
O=C(Nc1ccc([N+](=O)[O-])cc1Cl)c1cc(Cl)ccc1O | growth | 3.12% (active)
O=[N+]([O-])c1ccccc1N(S(=O)(=O)c1ccccc1)S(=O)(=O)c1ccccc1 | growth | 127% (inactive)
NC(=O)CC1OC(=O)Cc2cc3c(c(O)c21)C(=O)c1c(O)cccc1C3=O (stereo unspecified) | growth | 30.4% [100 µM] (inactive)
N#CC1(C#N)C2CCCCC23OC(=N)C1(C#N)C(c1ccco1)O3 (stereo unspecified) | growth | -54% [100 µM] (active)
Cc1c(Cl)cccc1NCN1C(=O)c2ccccc2C1=O | growth | 97.6% (inactive)
Oc1c(CN2CCCCC2)ccc2cccnc12 | growth | 38.9% (inactive)
CCCCCCCCCCCCCCCCOc1ccc(C)cc1 | growth | 102% (inactive)
Nc1ccc2[nH]c(-c3ccccc3)cc(=O)c2c1 | growth | 51.7% (inactive)
CC(C)CCCC(C)[C@H]1CC[C@H]2[C@@H]3CC[C@H]4C[C@@H](CCC=C(c5cc(Cl)c(O)c(C(=O)O)c5)c5cc(Cl)c(O)c(C(=O)O)c5)CC[C@]4(C)[C@H]3CC[C@]12C (stereo partly specified) (tested in a mixture with another compound) | growth | 97.3% [50 µM] (inactive)
CCOC(=O)c1sc(N)nc1-c1ccccc1 | growth | 100% (inactive)

----------
- System: HCT-116 colon
- Test name: NCI-60 one-dose screen, 48 h (100 = growth as untreated, 0 = no growth, -100 = all killed)
- Measurement context: 10 µM unless noted
This is part of a sample that, as a whole, favours compounds with a hit. Of some 83,000 tested, about 20% had one in any assay.

Molecule | growth / %
NCCSC(C[N+](=O)[O-])c1ccccc1Cl (stereo not drawn) | -83.9
S=C1SCN(Cc2ccccc2)CN1Cc1ccccc1 | 7.28
CCOC(=O)C(CNc1ccccc1)C(=O)OCC | 104
NC(=O)c1ccccc1OCC(O)CO (stereo not drawn) | 112
Cc1ccc(-c2noc(CC(=O)c3ccc([N+](=O)[O-])cc3)n2)cc1 | 98.7
Nc1ccccc1SC1CC(=O)N(c2cccc3ccccc23)C1=O (stereo not drawn) | 89.4
CN(Cc1ccccc1)Cc1ccccc1 | 103
c1ccc(N(c2ccccc2)c2ccccc2)cc1 | 99.6
O=[N+]([O-])c1ccc2nc3c4ccccc4c4ccccc4c3nc2c1 | 33.6
CC1=CCC2CC1C2(C)C (stereo not drawn) | 92.2
CC1=C(/C=C/C(C)=C/C=C/C(C)=C/C(=O)Nc2ccc(O)cc2)C(C)(C)CCC1 | 55.3
COc1ccc2ccccc2c1/C=N/N1CCCCC1 | 102
CCC(=O)C(CC)c1cccc(OC)c1 (stereo not drawn) | 104

----------
- Tested on: NCI-H322M lung
- Test name: NCI-60 one-dose screen, 48 h (100 = growth as untreated, 0 = no growth, -100 = all killed)
- Measurement context: 10 µM unless noted
Compounds without any hit were thinned out: in the full panel of roughly 83,000, 20% have a hit.
Quantity name: growth (%)

Compound | Measured value
CCOC(=O)c1sc(N)nc1-c1ccccc1 | 97
CC1=NN(c2ccccc2)C(=O)C1C(=O)c1ccccc1 (configuration not stated) | 110
CCOC(=O)C(CNc1ccccc1)C(=O)OCC | 105
Nc1ccc2[nH]c(-c3ccccc3)cc(=O)c2c1 | 97.5
CCCCCCCCCCCCOc1ccccc1C=O | 114
CC(O)Cn1cnc2c1c(=O)n(C)c(=O)n2C (configuration not stated) | 96.6
Fc1ccccc1Nc1n[nH]c(=S)s1 | 128

----------
- Test system: MCF7 breast
- Test name: NCI-60 one-dose screen, 48 h
- Measurement context: 10 µM unless noted
- Description: Growth inhibition of the MCF7 human tumor cell line is measured as a screen for anti-cancer activity. Cells are grown in 96 well plates and exposed to the test compound for 48 hours. Compounds are tested at a single concentration, which is 10^-5 M for most compounds. The reported endpoint is percent growth (GI% or GIPRCNT), where numbers from 0 - 100% represent growth inhibition, and numbers from -100% - 0 represent cell death. For example, a value of 40 represents 60% growth inhibition. […]
This is part of a sample that, as a whole, favours compounds with a hit. Of some 83,000 tested, about 20% had one in any assay. Activity calls are given as the source filed them. Rule for the calls: active = growth percent below 10; inactive = the rest.
Labels: true (1) = active, false (0) = inactive

Compound | Class label
Cc1ccc(-c2noc(CC(=O)c3ccc([N+](=O)[O-])cc3)n2)cc1 | false (0)
N#CC1(C#N)C2CCCCC23OC(=N)C1(C#N)C(c1ccccc1)O3 (stereo unspecified) | true (1)
c1ccc2cc(C[n+]3ccn(Cc4ccc5ccccc5n4)c3)ccc2c1 | true (1)
CCOC(=O)C(CNc1ccccc1)C(=O)OCC | false (0)
Cc1ccc(-c2noc(C)n2)cc1 | false (0)
O=[N+]([O-])c1ccc2nc3c4ccccc4c4ccccc4c3nc2c1 | false (0)
Oc1ccccc1C=NCC1CCC(CN=Cc2ccccc2O)CC1 (stereo unspecified) | false (0)
CC(O)Cn1cnc2c1c(=O)n(C)c(=O)n2C (stereo unspecified) | false (0)
O=C1c2c(O)cc(O)cc2OC(c2ccc(O)c(O)c2)C1O (stereo unspecified) | false (0)
COc1ccc2ccccc2c1/C=N/N1CCCCC1 | false (0)
O[C@H]1[C@H](O)[C@@H](Cn2nnc(-c3ccccc3)c2-c2ccccc2)OCO[C@@H]1Cn1nnc(-c2ccccc2)c1-c1ccccc1 | true (1)
O=C(CCc1ccc(O)cc1)N/N=C/c1cc(Br)ccc1O | false (0)
NC(=S)NS(=O)(=O)c1ccc(N)cc1 | false (0)
CC12CCC(CC1)C(C)(C)O2 | false (0)
Clc1nc(Oc2ccccc2)nc(-c2cn(-c3ccccc3)c3ccccc23)n1 | false (0)
O=C(O)CSCc1nc2ccccc2[nH]1 | false (0)
Nc1n[nH]c(=S)n1-c1ccc(Cl)cc1 | false (0)
N#C/C(=C1C=C/C(=N/O)C(Br)=C/1)c1ccccc1 | false (0)
COc1cc(C(=O)N/N=C/c2ccc(N(C)C)cc2)cc(OC)c1OC | false (0)
CC(=O)C(/C=N/C(N)=O)=C(/C)O | false (0)
O=C(Cc1cccc2ccccc12)N/N=C/c1ccc2c(c1)CCC2 | false (0)

----------
- Test system: UACC-257 melanoma
- Test name: NCI-60 one-dose screen, 48 h
- Measurement context: 10 µM unless noted
The panel holds about 83,000 compounds, 20% with a hit somewhere; the sample as a whole holds those more often. Active and inactive are the calls of the source. Rule for the calls: active = growth percent below 10; inactive = the rest.
Labels: yes for active, no for inactive

Compound | Class label
CN1CCN(Cc2occc(=O)c2O)CCN(C)CCN(Cc2occc(=O)c2O)CC1 | no
OCc1ccccn1 | no
CNC(=O)c1cccnc1 | no
C1CCCCNCCC1 | no
CC1(c2ccc3ccccc3c2)CCC(=O)O1 (centres undefined) | no
O=C1c2ccccc2C(=O)N1/N=C/c1ccc2c(c1)OCO2 | no
CC1=NN(c2ccccc2)C(=O)C1C(=O)c1ccccc1 (centres undefined) | no
COc1cc(NS(C)(=O)=O)ccc1Nc1c2ccccc2nc2c(C)cccc12 | no
N#CCCOc1ccccc1 | no
O=C(Nc1cccc(-n2ccc3c(NC(=O)c4ccccc4)nccc32)c1)c1ccc(Cl)c(C(F)(F)F)c1 | no
O=C(Cc1cccc2ccccc12)N/N=C/c1ccc2c(c1)CCC2 | no
COc1ccc(NC(=S)Nc2ccccn2)cc1 | no
CN(C)c1ccc(C(=C2C=CC(=[N+](C)C)C=C2)c2ccccc2Cl)cc1 | yes
NC(=O)C1CC2C=CC1C2 (centres undefined) | yes
O=C(CCc1ccc(O)cc1)N/N=C/c1cc(Br)ccc1O | no
N=C1N=C(N)CS1 | no
CC(C)Oc1ccc2cc(-c3nn(CC4CCNCC4)c4ncnc(N)c34)ccc2c1 | yes
CCOc1ccc2cc(-c3nn(CC4CCNCC4)c4ncnc(N)c34)ccc2c1 | yes
CC(/C=N/N1C(=O)c2ccccc2C1=O)c1ccccc1 (centres undefined) | no
CCC(=O)C(CC)c1cccc(OC)c1 (centres undefined) | no
O=C(O)c1cc(C(=O)O)cc([N+](=O)[O-])c1 | no
Nc1ncnc2c1ncn2C1CC(O)C(CO)O1 (centres undefined) | no
O=C1c2c(O)cc(O)cc2OC(c2ccc(O)c(O)c2)C1O (centres undefined) | no
C#CCN(C)Cc1ccccc1 | no
N#C/C(=C/c1c(O)ccc2ccccc12)C(N)=O | no
Cc1n[nH]c(=O)n(/N=C\c2c[nH]c3ccccc23)c1=O | no
CCOc1ccc2cc(-c3nn(CC4CCN(C)CC4)c4ncnc(N)c34)ccc2c1 | yes
NC(=O)c1ccccc1OCC(O)CO (centres undefined) | no
OCCN1CCN(CCO)CC1 | no
CCN(CC)C(=O)c1cccnc1 | no
N#C/C(=C1C=C/C(=N/O)C(Br)=C/1)c1ccccc1 | no
Cc1ccc(S(=O)(=O)NCN2C(=O)c3ccccc3C2=O)cc1 | no
CNC(=O)c1cc(Oc2ccc(NC(=O)Nc3ccc(Cl)c(C(F)(F)F)c3)cc2)ccn1 | yes
CC(=O)C(/C=N/C(N)=O)=C(/C)O | no
CCOC(=O)c1sc(N)nc1-c1ccccc1 | no
CCc1c(CC(=O)O)c2cc(C)ccc2n1Cc1ccc(Cl)cc1 | no
O=C(O)CSCc1nc2ccccc2[nH]1 | no
O=[N+]([O-])c1ccc(-n2[nH]nnc2=S)cc1 | no
Nc1ccc2[nH]c(-c3ccccc3)cc(=O)c2c1 | no
Cc1c(Cl)cccc1NCN1C(=O)c2ccccc2C1=O | no
COc1cc(C(=O)N/N=C/c2ccc(N(C)C)cc2)cc(OC)c1OC | no
Cc1ccc(-c2noc(C)n2)cc1 | no
O=C(Oc1cccc(OC(=O)c2ccccc2)c1)c1ccccc1 | no
NC(=S)N/N=C(\c1ccc(Br)cc1)C1CC1 | no
